target: rat NaP2b (SLC34A2) (Rattus norvegicus); construct: host or cells: HEK293; experiment: Inhibition of NaP2b-mediated Pi (33P) uptake in transfected HEK293 cells, rat NaP2b; type: cell-based; conditions: 33P Pi uptake, 0.1 mM phosphate, value given as pIC50 range
Sequence (Q9JJ09 whole entry): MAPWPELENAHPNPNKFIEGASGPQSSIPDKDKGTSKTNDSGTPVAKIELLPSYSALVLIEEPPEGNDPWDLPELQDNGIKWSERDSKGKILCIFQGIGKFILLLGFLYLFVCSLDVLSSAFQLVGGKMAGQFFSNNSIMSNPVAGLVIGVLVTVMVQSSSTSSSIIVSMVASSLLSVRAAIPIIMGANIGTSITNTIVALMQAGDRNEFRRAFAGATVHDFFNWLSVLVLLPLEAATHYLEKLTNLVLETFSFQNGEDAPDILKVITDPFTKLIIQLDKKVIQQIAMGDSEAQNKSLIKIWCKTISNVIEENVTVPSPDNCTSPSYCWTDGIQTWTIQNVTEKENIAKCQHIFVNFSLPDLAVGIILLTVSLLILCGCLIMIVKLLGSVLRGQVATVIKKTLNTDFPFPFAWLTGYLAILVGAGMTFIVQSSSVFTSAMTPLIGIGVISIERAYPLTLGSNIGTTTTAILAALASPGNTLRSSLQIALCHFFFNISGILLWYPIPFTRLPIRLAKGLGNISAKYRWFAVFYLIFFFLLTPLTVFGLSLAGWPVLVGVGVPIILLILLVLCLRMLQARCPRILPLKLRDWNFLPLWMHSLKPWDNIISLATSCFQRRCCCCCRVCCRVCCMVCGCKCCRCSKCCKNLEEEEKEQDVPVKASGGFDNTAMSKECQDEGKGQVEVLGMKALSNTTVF
pIC50: −log10 of the molar value.
endpoint: pIC50

Worked cases, answers included:
The compound O=C(O)Cc1cccc(SCc2cccc(C(=O)Nc3ccc(N4CCCCC4)cc3-c3cc(C(=O)N[C@H]4CCCc5ccccc54)ccn3)c2)c1 showed pIC50 equal to > 6.00

The compound CN(CCN1CCC[C@H]1C(=O)N(C)CCOCCOCCOCCC(=O)O)C(=O)c1cccc(C(=O)Nc2ccc(N3CCCCC3)cc2-c2cc(C(=O)N[C@H]3CCCc4ccccc43)ccn2)c1 showed pIC50 equal to 4.50 to 5.00

The compound COCCOCCOCCOCCOCCOCCOCCOCCNC(=O)[C@@H]1CCCN1CCN(C)C(=O)c1cccc(C(=O)Nc2ccc(N3CCCCC3)cc2-c2cc(C(=O)N[C@H]3CCCc4ccccc43)ccn2)c1 showed pIC50 equal to 5.10 to 6.00

The compound CCN(CC)c1ccc(NC(=O)c2cccc(COCCOCCOCCOCCOCCOCCOC(=O)N(C)CCN3CCOCC3)c2)c(-c2cc(C(=O)NCc3cccc(C(F)(F)F)c3)ccn2)c1 showed pIC50 equal to 5.10 to 6.00

The compound O=C(NCc1cccc(C(F)(F)F)c1)c1ccnc(-c2cc(N3CCCCC3)ccc2NC(=O)c2cccc(Cn3ccc4c(C(=O)NCCOCCOCCO)cccc43)c2)c1 showed pIC50 equal to 5.10 to 6.00

Further cases:
The compound CCN(CC)c1ccc(NC(=O)c2cccc(C(=O)N(C)CCN(C)CCOCCOCCOCCNC(=O)N(CCO)CCO)c2)c(-c2cc(C(=O)N[C@H]3CCCc4ccccc43)ccn2)c1 showed pIC50 equal to 4.50 to 5.00

The compound CN(CCN1CCOCC1)C(=O)c1cccc(C(=O)Nc2ccc(N3CCC[C@H]4CCCC[C@@H]43)cc2-c2cc(C(=O)NCc3cccc(C(F)(F)F)c3)ccn2)c1 showed pIC50 equal to 5.10 to 6.00

The compound CN(Cc1cccnc1)C(=O)c1cccc(C(=O)Nc2ccc(N3CCCCC3)cc2-c2cc(C(=O)NCc3cccc(C(F)(F)F)c3)ccn2)c1 showed pIC50 equal to 5.10 to 6.00

The compound CCN(CC)c1ccc(NC(=O)c2cccc(C(=O)N(C)CCN(C)CCOCCOCCOCCN=[N+]=[N-])c2)c(-c2cc(C(=O)N[C@H]3CCCc4ccccc43)ccn2)c1 showed pIC50 equal to > 6.00

The compound CCN(CC)c1ccc(NC(=O)c2cccc(CCCOCCOCCOCCOCCC(=O)NCCOCCOCCOCCOCCOCCOCCOCCOC)c2)c(-c2cc(C(=O)N[C@H]3CCCc4ccccc43)ccn2)c1 showed pIC50 equal to 5.10 to 6.00

The compound CCN(CC)c1ccc(NC(=O)c2cccc(CCCOCCOCCOCCOCCNC(=O)c3cccc(CCCOCCOCCOCCOCCOCCOCCOCCOCCOC)c3)c2)c(-c2cc(C(=O)NCc3cccc(C(F)(F)F)c3)ccn2)c1 showed pIC50 equal to 5.10 to 6.00
